These data points were gathered from PubChem BioAssay.

Reported composite z-score is given for each of the following compounds.
- Measurement target: Fibroblast growth factor 2 (Homo sapiens)
- Method: FGF2 binders on small-molecule microarrays, primary screen, biochemical, small-molecule microarray, 635/667 nm fluorescence (AID 1133)
- Test context: small-molecule microarray binding, FGF2, fluorescence 635/667; higher = more signal

Here are 4 compounds together with their reported answers.
CC(=O)OC(C/C=C\B1OC(C)(C)C(C)(C)O1)c1ccccc1 (stereo not given) :: -0.377
COc1ccc([Si](C)(C)[C@H]2[C@H](CCO)O[C@@]3(C(=O)N(Cc4ccc(N5C(=O)c6cccc7cccc5c67)cc4)c4ccccc43)[C@@H]2C)cc1 :: -0.611
COC(=O)[C@@]1(CCC(=O)OC(C)(C)C)COC(c2ccc(OCCCO)cc2)=N1 :: -1.64
C=CC[C@]1(C(=O)N2CCCCC2)COC(c2ccc(OCCCO)cc2)=N1 :: -0.453

Attention now shifts to the item below.
Q) Which composite z-score value belongs to CCCCCN1CC=CC23O[C@@H]4/C=C\CCC(C)OC(=O)C4[C@H]2C(=O)N(CCCO)[C@@H]3C1=O (stereo not given in full) ?
A) -0.965

----------
- Method: PSAC antagonists in infected red cells, primary screen, cell-based, P. falciparum Indochina, OD700, 1 h (AID 1154)
- Test context: P. falciparum Indochina infected RBC osmotic lysis, higher = more signal, called active from +8 up or from −8 down
Recorded metric: z-score
Please state the value as a number alone, without comment.

Worked set:
C=CCN1C(=O)[C@@]2(O[C@@H](CCO)[C@H]([Si](C)(C)c3ccc(OC)cc3)[C@H]2C)c2cc(N(C=O)c3ccccc3)ccc21 :: 24
CCCCCN1CC=CC23O[C@@H]4/C=C\CCC(C)OC(=O)C4[C@H]2C(=O)N(CCO)[C@@H]3C1=O (some centres not stated) :: 2.04

Q) Please look up its z-score: C=CCC(OC(C)=O)[C@@H]1[C@@H](N(Cc2ccc(-c3ccccc3)cc2)C(=O)c2ccc(-c3ccccc3)cc2)c2cc(OCCCO)ccc2N1C(=O)c1ccc(-c2ccccc2)cc1 (some centres not stated)
A) 0.568

Q) Need z-score, item "NCCCCCNC(=O)[C@H]1C[C@H]2C(=O)NCC(=O)N2[C@H]1c1ccc(O)cc1"
A) 0.365

Q) For the molecule "CCOC(=O)C[C@H]1[C@H](OC(=O)c2ccc(-c3ccccc3)cc2)[C@@H](NC(=O)C2CCCCC2)c2cc(OCCCO)ccc2N1C(=O)c1ccc2ccccc2n1" , what z-score is on record?
A) 1.45

Q) Request the reported z-score associated with "CC(C)C(=C=CC[C@@H](O)c1ccc(CO)o1)CCO"
A) 1.95

Q) So what's the measured z-score for this one? C=CCC(OC(C)=O)[C@@H]1[C@@H](N(Cc2ccc(-c3cccc(C(F)(F)F)c3)o2)C(=O)c2ccc(-c3ccccc3)cc2)c2cc(OCCCO)ccc2N1C(=O)Cc1ccc(OC)cc1 (some centres not stated)
A) 0.963

----------
- Measurement target: Torsin-1A (Homo sapiens) (UniProt O14656)
- Sequence (O14656 whole entry, looked up): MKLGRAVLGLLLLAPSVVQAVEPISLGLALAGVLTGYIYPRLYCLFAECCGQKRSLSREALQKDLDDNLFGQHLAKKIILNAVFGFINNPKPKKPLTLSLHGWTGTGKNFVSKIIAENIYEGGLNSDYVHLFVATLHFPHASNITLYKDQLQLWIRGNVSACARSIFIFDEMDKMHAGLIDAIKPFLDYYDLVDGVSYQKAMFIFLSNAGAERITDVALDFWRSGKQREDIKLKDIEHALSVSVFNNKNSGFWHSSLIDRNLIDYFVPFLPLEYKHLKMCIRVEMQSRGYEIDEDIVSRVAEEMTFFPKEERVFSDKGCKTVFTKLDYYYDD
- Method: small-molecule binders of mutant TOR1A in lysate, primary screen, cell lysate, small-molecule microarray, COS7 lysate, 635/667 nm fluorescence (AID 1150);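 note: score pools 667 nm emission and signal to noise measuring lysate protein binding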
- Test context: COS7 hTOR1A mutant lysate, 635 nm fluorescence, higher = more signal
Recorded metric: composite z-score
Enter a number only.

As a guide, the following entries are already answered.
COCCOC(=O)N1C(=O)[C@@]2(c3ccccc31)[C@H](C(=O)Nc1nc3ccccc3s1)[C@H]1C(=O)O[C@H](c3ccccc3)[C@H](c3ccccc3)N1[C@@H]2c1ccc(O)cc1 :: -0.06
COCCOC(=O)N1C(=O)[C@@]2(c3cc(C#CC4(O)CCCCCC4)ccc31)[C@H](c1ccc(O)cc1)N1[C@H](c3ccccc3)[C@H](c3ccccc3)OC(=O)[C@H]1[C@@H]2C(N)=O :: 0.497

Okay, now this compound:
Q) What value of composite z-score has been recorded for this entry: "COc1ccc([Si](C)(C)[C@@H]2[C@@H](CCn3cc(CCO)nn3)O[C@]3(C(=O)N(Cc4ccc(N5C(=O)c6cccc7cccc5c67)cc4)c4ccccc43)[C@H]2C)cc1"
A) 0.609

----------
- Method: mitochondrial membrane potential change in A549 cells, profiling panel, cell-based, JC-1 fluorescence, basal, 24 h, 100 nL (AID 1138);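 note: A549 lung adenocarcinoma cells under basal conditions with no added stimulus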
- Test context: higher = more signal
Examples of molecules with documented z-score follow.
Respond using a number only.

Below are worked cases with known answers.
O=C1O[C@H](c2ccccc2)[C@H](c2ccccc2)N2[C@H]1[C@@H](C(=O)NC[C@H](O)c1ccccc1)[C@]1(C(=O)Nc3ccc(C#CC4(O)CCCCCC4)cc31)[C@H]2c1ccc(O)cc1 :: -0.105
C#CCOc1ccc(C[C@H]2C(=O)O[C@H](Cc3ccccc3)[C@H](/C=C/C3CC3)N2CC#C)cc1 :: 4.32
CCOC(=O)C[C@H]1[C@H](OC(=O)c2ccc(-c3ccccc3)cc2)[C@@H](NC(=O)C2CCCCC2)c2cc(OCCCO)ccc2N1C(=O)c1ccc2ccccc2n1 :: 1.14
CC(C)C[C@@H]1NC(=O)[C@@]23C(=O)N[C@@H](Cc4ccccc4)C2[C@H](C)[C@@]2(C)O[C@H]2C3/C=C/CC/C=C/CNC(=O)[C@@H](C)NC1=O (stereo partly specified) :: -0.168
[N-]=[N+]=Nc1ccccc1[C@H]1OC(c2ccc(OCCCO)cc2)=N[C@@]1(Cc1ccccc1)C(N)=O :: 1.5

# input for lookup
Q) Given the molecule "O=C1N(CCS(=O)(=O)c2ccccc2)Cc2ccccc2[C@@H]2OC(c3ccc(OCCCO)cc3)=N[C@]12Cc1ccccc1" , what is its reported z-score?
A) -0.0106

----------
Measured composite z-score by item
- Tested on: Fibrinogen (Alexa647-labelled)
- Method: fibrinogen binders on compound microarrays, profiling panel, artefact control for SMM control-protein annotation, biochemical, small-molecule microarray, 635/667 nm fluorescence (AID 1131);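 note: z-score merges 667 nm fluorescence with per-spot signal-to-noise over triplicate slides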
- Test context: fibrinogen-A647 binding fluorescence, higher = more signal
Write the value as a bare number.

Q) Fill in the blank: the reported composite z-score of "NCCCCCNC(=O)[C@H]1C[C@H]2C(=O)NCC(=O)N2[C@H]1c1ccc(O)cc1" is ____.
A) 0.97

Q) Need composite z-score of "C=CCN1C(=O)[C@@]2(O[C@@H](CCn3cc(CCO)nn3)[C@H]([Si](C)(C)c3ccc(OC)cc3)[C@H]2C)c2cc(N3C(=O)c4cccc5cccc3c45)ccc21" , thanks.
A) 0.807

Q) Please look up its composite z-score: "CC(C)(C)OC(=O)CC[C@@]12N=C(c3ccc(OCCCO)cc3)O[C@@H]1c1ccccc1CN(Cc1ccccc1)C2=O"
A) 0.357

Q) Return reported composite z-score; argument: "O=C(NCC(F)(F)F)[C@@H]1c2ccccc2C(=O)N(C2Cc3ccccc3C2)[C@H]1c1ccc(CO)cc1"
A) -1.58

Q) Entry under review: "COc1ccc(/C=C/C(=O)c2cccc(OCC(=O)OC(C)(C)C)c2)cc1" . Reported composite z-score?
A) 0.158

Q) Fill blank: measured composite z-score of the compound "C=C(C(=O)CC[C@@H](OC(C)=O)c1ccccc1OCCO)C(C)C" is ____.
A) -0.314

Q) Data request, read-out composite z-score, for "COc1ccc([Si](C)(C)[C@@H]2[C@@H](CC(=O)N3CCC[C@H]3CO)O[C@]3(C(=O)N(Cc4ccc(I)cc4)c4ccccc43)[C@H]2C)cc1"
A) 0.584

Q) Data request, read-out composite z-score, for "[N-]=[N+]=NCc1ccccc1C[C@@]1(C(=O)O)N=C(c2ccc(OCCCO)cc2)O[C@@H]1c1ccccc1"
A) 0.808

----------
- Method: inhibitors of CMV-promoter luciferase reporter, dose response, counter-screen for Pax8 inhibitor project, cell-based, HEK293, luminescence, dry powder (AID 743020);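 note: HEK293 cells stably expressing the CMV luciferase reporter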
- Test context: SteadyGlo luminescence, 24 h; series mostly up to 35 µM
Measured potencies and affinities stand elsewhere. Inconclusive results are not listed. Calls of active or inactive are those of the source.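 The calls were made as follows: active = signal-lowering compounds whose fitted half-maximal concentration is at or below twice the top tested dose in every run; inconclusive = runs disagree, flat 30 to 70% inhibition, or poor curve fit; inactive = the rest.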
Recorded metric: activity change, negative = inhibition

Below, 5 compounds whose answers are already recorded.
O=[N+]([O-])c1c(Nc2cccc(O)c2)cc(Cl)c2nonc12 :: inactive
C[C@@H]1CN([C@@H](C)CO)C(=O)Cc2cc(NC(=O)Nc3ccc(C(F)(F)F)cc3)ccc2O[C@H]1CN(C)C(=O)NC1CCCCC1 :: inactive
COc1cccc(-c2nc(CS(=O)(=O)CC(=O)NCCCN3CC(C)CC(C)C3)c(C)o2)c1 (configuration not stated) :: inactive
Fc1cccc(CN2C[C@@H]3N[C@H](C2)[C@@H]3c2ccc(-c3cccc(F)c3)cc2)c1 :: inactive
CN(C[C@H]1N[C@@H](CO)[C@@H]1c1ccc(C2=CCCC2)cc1)C(=O)c1ccncc1 :: inactive

Q) Given the compound "Cc1ccccc1N=C1N=C(N)c2ccccc21" , what is its reported activity change, negative = inhibition?
A) inactive

Q) Which activity change, negative = inhibition is reported for this compound? "C[C@@H]1CCCCO[C@H](CN(C)C(=O)C2CCCCC2)[C@H](C)CN([C@@H](C)CO)C(=O)c2cc(NS(=O)(=O)c3ccc(Cl)cc3)ccc2O1"
A) inactive

Q) // activity change, negative = inhibition lookup, key: "CCCN1[C@H](C(=O)N2CCOCC2)[C@@H](CO)[C@@H]2Cn3c(ccc(/C=C/c4ccccc4)c3=O)[C@@H]21"
A) inactive

Q) Would you kindly share the measured activity change, negative = inhibition for "COc1ccc(S(=O)(=O)/N=C2\C=C(Nc3ccc(O)cc3)C(=O)c3ccccc32)cc1" ?
A) inactive

Q) Which value of activity change, negative = inhibition has been reported for "C[C@@H]1CCCCO[C@H](CN(C)Cc2ccccc2)[C@@H](C)CN([C@@H](C)CO)C(=O)c2cc(NC(=O)Nc3ccc(C(F)(F)F)cc3)ccc2O1" in the records?
A) inactive

Q) State the recorded activity change, negative = inhibition for this entry: "C[C@@H]1CN([C@H](C)CO)S(=O)(=O)c2ccc(C#CC3CCCC3)cc2O[C@H]1CN(C)Cc1cccnc1"
A) inactive

Q) Reported activity change, negative = inhibition, compound "O=C(Nc1ccc(F)cc1)N[C@H]1CC[C@H](CCNC(=O)c2cc(Cl)cc(Cl)c2)O[C@H]1CO" : ____
A) inactive

Q) // returns reported activity change, negative = inhibition for input "COc1ccc(C(=O)CN2C(=O)c3ccccc3S2(=O)=O)cc1"
A) inactive

Q) What value of activity change, negative = inhibition has been recorded for this entry: "Cc1noc(C)c1S(=O)(=O)Nc1ccc2c(c1)C(=O)N([C@H](C)CO)C[C@@H](C)[C@H](CN(C)C(=O)Nc1ccc(C(F)(F)F)cc1)OCCCC[C@@H](C)O2"
A) inactive

Q) # get_value(readout='activity change, negative = inhibition', item= "CSc1nc(-c2ccccc2)nc(C(Cl)Cl)n1" )
A) inactive

Q) Could you tell me which activity change, negative = inhibition is on file for "C[C@H]1CCCCO[C@@H](CN(C)Cc2ccc(C(F)(F)F)cc2)[C@@H](C)CN([C@@H](C)CO)C(=O)c2cc(NC(=O)Cc3ccccc3)ccc2O1" ?
A) inactive

Q) Look at this compound and give its reported activity change, negative = inhibition. "OC[C@@H]1[C@H](c2ccc(-c3ccc(F)cc3)cc2)[C@@H]2CN(CCC(F)(F)F)CCCCN12"
A) inactive

Q) // returns reported activity change, negative = inhibition for input "CN(C)C(=O)c1cccc(-c2ccccc2[C@@H]2[C@@H](C#N)N(C(=O)C3CC3)[C@H]2CO)c1"
A) inactive

Q) Please report the recorded activity change, negative = inhibition for "C[C@H]1CN([C@@H](C)CO)C(=O)c2cc(NS(=O)(=O)c3ccccc3)ccc2O[C@@H]1CN(C)Cc1ccc(Oc2ccccc2)cc1" .
A) inactive

Q) Please give the measured activity change, negative = inhibition for this compound: COc1ccc(C(C(=O)NC2CCCCC2)N(C(=O)CCl)c2cccc(Cl)c2)cc1 (configuration not stated)
A) inactive

Q) Find the recorded activity change, negative = inhibition belonging to "COc1ccc(OC)c(N(CCN2C(=O)c3ccccc3C2=O)C(=O)CCl)c1" and report it.
A) inactive
